Data provenance is ChEMBL document CHEMBL3739330.

- Tested system: Pancreatic alpha-amylase (Sus scrofa)
- Sequence (P00690 whole entry): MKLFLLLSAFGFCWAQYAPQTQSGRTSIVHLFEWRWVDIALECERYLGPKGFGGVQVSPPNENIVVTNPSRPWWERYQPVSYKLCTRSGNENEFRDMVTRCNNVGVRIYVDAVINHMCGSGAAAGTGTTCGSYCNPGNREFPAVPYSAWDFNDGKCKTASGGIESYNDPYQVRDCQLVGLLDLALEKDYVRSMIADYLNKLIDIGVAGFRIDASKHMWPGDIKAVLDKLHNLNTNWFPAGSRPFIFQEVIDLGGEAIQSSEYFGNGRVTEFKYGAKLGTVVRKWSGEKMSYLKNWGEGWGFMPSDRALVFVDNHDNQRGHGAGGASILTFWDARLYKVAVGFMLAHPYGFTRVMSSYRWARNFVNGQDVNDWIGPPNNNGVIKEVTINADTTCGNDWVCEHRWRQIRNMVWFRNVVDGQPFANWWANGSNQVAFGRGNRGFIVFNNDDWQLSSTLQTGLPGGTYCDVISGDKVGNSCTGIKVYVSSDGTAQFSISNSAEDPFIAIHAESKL
Measured metric: IC50 (µM)
Value expressed in µM; do not type the unit.

// query I'm curious: which IC50 was measured for COc1cc2c(c3c1CC[C@@H](c1ccccc1)O3)[C@H]1c3c(cc(OC(=O)c4cc(O)c(O)c(O)c4)c(C)c3OC)O[C@@](c3ccccc3)(O2)[C@@H]1O tested on Pancreatic alpha-amylase (Sus scrofa)?
// result 12

---

- Tested system: Pancreatic alpha-amylase (Sus scrofa) (UniProt P00690)
- Assay text: Inhibition of porcine pancreatic alpha-amylase assessed as starch digestion up to 370 uM up to 120 mins by turbidity assay
Activity calls are given as the source filed them. The calls are words filed in the database; no cut-off is given here.
The reply should be one of these categories: class 1 (active), class 0 (inactive)

// query GET /call?item= COc1cc2c(c3c1CC[C@@H](c1ccccc1)O3)[C@H]1c3c(cc(OC(=O)c4cc(OC(C)=O)c(OC(C)=O)c(OC(C)=O)c4)c(C)c3OC)O[C@@](c3ccccc3)(O2)[C@@H]1O returns the recorded outcome of this test.
// result class 0

// query Record lookup: outcome of this test for Oc1cc(O)c2c(c1)O[C@@]1(c3ccc(O)c(O)c3)Oc3cc(O)c4c(c3[C@@H]2[C@H]1O)O[C@H](c1ccc(O)c(O)c1)[C@H](O)C4 ?
// result class 0

// query I'd appreciate the recorded outcome for COc1cc2c(c3c1CC[C@@H](c1ccccc1)O3)[C@H]1c3c(cc(OS(=O)(=O)O)c(C)c3OC)O[C@@](c3ccccc3)(O2)[C@@H]1O from this test.
// result class 0

// query Any idea what this test logged for COc1cc2c(c3c1CC[C@@H](c1ccccc1)O3)[C@H]1c3c(cc(OC(C)=O)c(C)c3OC)O[C@@](c3ccccc3)(O2)[C@@H]1O ?
// result class 0

// query Identify the outcome logged in this assay for the molecule shown: COc1cc2c(c3c1CC[C@@H](c1ccccc1)O3)[C@H]1c3c(cc(OC(=O)c4ccccc4)c(C)c3OC)O[C@@](c3ccccc3)(O2)[C@@H]1O
// result class 0

// query Query: recorded result category for COc1cc2c(c3c1CC[C@@H](c1ccccc1)O3)[C@H]1c3c(cc(O)c(C)c3OC)O[C@@](c3ccccc3)(O2)[C@@H]1O (mixture of isomers) in this test
// result class 1
